Target: Nuclear receptor subfamily 1 group I member 2 (Homo sapiens) (UniProt O75469)
Sequence (O75469 whole entry, looked up): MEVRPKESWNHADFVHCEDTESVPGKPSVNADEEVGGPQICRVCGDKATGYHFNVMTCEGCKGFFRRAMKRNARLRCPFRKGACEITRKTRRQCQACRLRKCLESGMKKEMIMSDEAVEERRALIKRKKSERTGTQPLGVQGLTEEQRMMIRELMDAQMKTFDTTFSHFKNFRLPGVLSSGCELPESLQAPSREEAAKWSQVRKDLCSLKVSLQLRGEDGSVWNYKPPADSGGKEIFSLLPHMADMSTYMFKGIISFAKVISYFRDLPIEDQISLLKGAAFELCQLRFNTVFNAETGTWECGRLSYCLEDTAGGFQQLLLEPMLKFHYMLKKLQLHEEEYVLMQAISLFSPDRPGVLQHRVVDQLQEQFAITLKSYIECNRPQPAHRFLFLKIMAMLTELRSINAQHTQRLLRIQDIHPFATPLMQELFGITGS
Assay Procedure: Human pregnane X receptor (PXR) small molecule agonists, qHTS assay (AID 1346982); also: nearly all actives have a fitted effect of over 35% in size
Experimental Context: PXR-Luc HepG2, CYP3A4 luciferase reporter, 24 h; series mostly up to 92.4 µM
Results filed as inconclusive are left out. The source made the active and inactive calls. Calls follow the shape of the dose curve; as a rule, active = well fitted activation curve with a large enough effect in the repeat runs; inconclusive = weak or mixed curves; inactive = no such curve, though single readings can be large or run the other way.
Possible outcomes: active, inactive

Compound	Assigned Class
CN(C)C(=O)C1(N2CCCCC2)CCN(CC[C@@]2(c3ccc(Cl)c(Cl)c3)CN(C(=O)c3ccccc3)CCO2)CC1	active
CC(C)(C)C(=O)OCOC(=O)C1N2C(=O)CC2S(=O)(=O)C1(C)C (centres undefined)	inactive
OC1(c2ccc(Cl)c(C(F)(F)F)c2)CCN(CCCC(c2ccc(F)cc2)c2ccc(F)cc2)CC1	inactive
CC/C(=C(\c1ccc(O)cc1)c1ccc(OCCN(C)C)cc1)c1ccccc1	active
CCCC(C)c1ccccc1O (centres undefined)	inactive
O=C(Oc1ccccc1)c1ccccc1C(=O)Oc1ccccc1	inactive
NC(=O)CC[C@@H]1NC(=O)[C@H](Cc2ccccc2)NC(=O)[C@H](Cc2ccc(O)cc2)NC(=O)CCSSC[C@@H](C(=O)N2CCC[C@H]2C(=O)N[C@@H](CCCN=C(N)N)C(=O)NCC(N)=O)NC(=O)[C@H](CC(N)=O)NC1=O	inactive
CCCCCCCCCCCCCCCC[N+](C)(C)CCN(Cc1ccc(OC)cc1)c1ncccn1	inactive
CCN(CCC#N)c1ccc(N=Nc2c(Cl)cc([N+](=O)[O-])cc2Cl)cc1	active
CCCC(c1cc(C(C)(C)C)c(O)cc1C)c1cc(C(C)(C)C)c(O)cc1C	active
O=C(O)c1c(Cl)cccc1Cl	inactive
COc1ccc(-c2ccc3cc(C(=O)O)ccc3c2)cc1C12CC3CC(CC(C3)C1)C2	inactive
Cc1cc2c(cc1C(F)(F)F)N(C(=O)Nc1ccc(Oc3cccnc3C)nc1)CC2	active
CC(=O)OCC(C)OC(C)=O (centres undefined)	inactive
Cc1cc(N)c(S(=O)(=O)O)cc1Cl	inactive
C=C(C)C(=O)OCC(O)COc1ccc(C(C)(C)c2ccc(OCC(O)COC(=O)C(=C)C)cc2)cc1 (centres undefined)	active
CC(C)=CCOc1ccc(/C=C/C(=O)c2ccc(OCC=C(C)C)cc2OCC(=O)O)cc1	inactive
c1ccc(CSCc2ccccc2)cc1	active
Nc1ccc2c3c(cccc13)-c1ccccc1-2	active
C[C@H](CCC(=O)O)[C@H]1CC[C@H]2[C@@H]3CC[C@@H]4C[C@H](O)CC[C@]4(C)[C@H]3CC[C@]12C	active
Cc1cc(O)c(Cl)c(C)c1Cl	inactive
CCCCN(CCCC)c1ccc(C(=O)c2ccccc2C(=O)O)c(O)c1	active
O=c1cccccc1O	active
CCOC(=O)O[C@H](C)OC(=O)c1ccc2c(c1)cc(C(=O)NC1CCN(C(C)C)CC1)n2Cc1cc(-c2ccc(Cl)s2)on1	inactive

====

Target: Voltage-gated inwardly rectifying potassium channel KCNH2 (Homo sapiens) (UniProt Q12809)
Sequence (Q12809 whole entry, looked up): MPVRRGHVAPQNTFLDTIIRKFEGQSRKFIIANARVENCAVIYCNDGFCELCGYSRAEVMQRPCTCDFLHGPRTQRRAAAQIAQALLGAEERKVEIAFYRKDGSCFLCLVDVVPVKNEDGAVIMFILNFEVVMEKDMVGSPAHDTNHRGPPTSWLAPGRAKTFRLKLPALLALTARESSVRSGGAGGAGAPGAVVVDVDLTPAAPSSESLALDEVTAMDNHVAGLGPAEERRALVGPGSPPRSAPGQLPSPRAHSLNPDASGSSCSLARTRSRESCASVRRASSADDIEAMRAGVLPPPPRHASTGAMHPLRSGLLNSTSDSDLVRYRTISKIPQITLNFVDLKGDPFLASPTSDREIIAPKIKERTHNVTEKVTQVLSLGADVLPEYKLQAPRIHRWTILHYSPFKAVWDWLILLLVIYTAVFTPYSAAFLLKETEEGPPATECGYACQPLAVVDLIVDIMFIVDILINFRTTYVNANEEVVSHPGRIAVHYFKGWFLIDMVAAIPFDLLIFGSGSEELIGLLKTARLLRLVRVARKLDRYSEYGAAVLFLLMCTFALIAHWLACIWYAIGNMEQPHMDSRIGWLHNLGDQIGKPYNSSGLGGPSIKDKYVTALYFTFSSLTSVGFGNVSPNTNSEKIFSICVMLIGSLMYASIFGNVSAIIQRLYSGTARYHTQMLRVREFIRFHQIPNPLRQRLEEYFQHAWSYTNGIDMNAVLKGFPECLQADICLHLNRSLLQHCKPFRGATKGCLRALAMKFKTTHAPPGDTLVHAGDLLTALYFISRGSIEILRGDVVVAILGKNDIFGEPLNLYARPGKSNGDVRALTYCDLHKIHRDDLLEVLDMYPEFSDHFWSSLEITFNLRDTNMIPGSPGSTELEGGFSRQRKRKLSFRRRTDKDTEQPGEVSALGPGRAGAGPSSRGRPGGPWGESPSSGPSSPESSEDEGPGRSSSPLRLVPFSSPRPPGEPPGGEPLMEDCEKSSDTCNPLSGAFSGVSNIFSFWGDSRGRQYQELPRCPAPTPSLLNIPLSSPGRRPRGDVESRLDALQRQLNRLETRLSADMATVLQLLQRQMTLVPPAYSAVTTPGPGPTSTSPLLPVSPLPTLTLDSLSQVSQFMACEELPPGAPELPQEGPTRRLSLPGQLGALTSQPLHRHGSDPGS
Assay Procedure: Human Ether-a-go-go-Related Gene (hERG) channel small molecule antagonists: fluorescence cell-based qHTS assay (AID 1671200); also: nearly all actives have a fitted effect of over 50% in size
Experimental Context: hERG-U2OS cells, FluxOR thallium flux fluorescence; series mostly up to 76.8 µM
Records with an inconclusive call do not appear. Activity calls are given as the source filed them. Calls follow the shape of the dose curve; as a rule, active = well fitted inhibition curve with a large enough effect in the repeat runs; inconclusive = weak or mixed curves; inactive = flat fitted curve, though single readings scatter.
Outcome codes: T for active, F for inactive

Compound	Assigned Class
CC[C@@]1(O)C(=O)OCc2c1cc1n(c2=O)Cc2c-1nc1ccccc1c2/C=N/OC(C)(C)C	F
CN(C)c1ccc(SC#N)cc1	F
OCCCCCCCCCCCCBr	F
C[C@H]1[C@H]2CC[C@H]3[C@@H]4CC=C5C[C@@H](N(C)C)CC[C@]5(C)[C@H]4CC[C@]23CN1C	F
CC[C@@]1(O)C(=O)OCc2c1cc1n(c2=O)Cc2cc3c(CN(C)C)c(O)ccc3nc2-1	F
CC(=O)SC[C@@H](Cc1ccccc1)C(=O)NCC(=O)OCc1ccccc1	F
Oc1c(Cl)cc(Cl)c2cccnc12	F
CN(C)c1ccc(C2(c3ccc(N(C)C)cc3)OC(=O)c3cc(N(C)C)ccc32)cc1	F
NC(=O)C1(N2CCCCC2)CCN(CCCN2c3ccccc3CCc3ccc(Cl)cc32)CC1	T
C[C@]12CCC(=O)C=C1CC[C@@H]1[C@@H]2[C@@H](O)C[C@@]2(C)[C@H]1CC[C@]2(O)C(=O)COC(=O)CCC(=O)O	F
C=C(C)C(=O)OCC(O)COc1ccc(C(C)(C)c2ccc(OCC(O)COC(=O)C(=C)C)cc2)cc1 (centres undefined)	F
Cc1cccc(N(C)C(=S)Oc2ccc3c(c2)C2CCC3C2)c1 (centres undefined)	F
CCCCCCCCn1sc(Cl)c(Cl)c1=O	T
Clc1ccc(C(Cn2ccnc2)OCc2ccc(Sc3ccccc3)cc2)c(Cl)c1 (centres undefined)	T
CCC1=C[C@@H]2CN(C1)Cc1c([nH]c3ccccc13)[C@@](C(=O)OC)(c1cc3c(cc1OC)N(C)[C@H]1[C@@](O)(C(=O)OC)[C@H](OC(C)=O)[C@]4(CC)C=CCN5CC[C@]31[C@@H]54)C2	T
CCc1cc(Cc2cc(CC)c(N)c(CC)c2)cc(CC)c1N	F
C=C(C)C(=O)OCC[N+](C)(C)C	F
Cc1cc(C2CCCCC2)n(O)c(=O)c1	F
CN1CCN(CCC(=O)N2c3ccccc3Sc3ccc(C(F)(F)F)cc32)CC1	T
CN(C)[C@@H]1C(=O)C(C(N)=O)=C(O)[C@@]2(O)C(=O)C3=C(O)c4c(O)ccc(Cl)c4[C@@H](O)[C@H]3C[C@@H]12	F
CCCCC(CC)COP(=O)(O)OCC(CC)CCCC (centres undefined)	F
Cc1[nH]cnc1C[C@H]1CCc2c(C)c3ccccc3n2C1=O	T
Cc1c(C)c2c(c(C)c1OC(=O)CCC(=O)O)CC[C@@](C)(CCC[C@H](C)CCC[C@H](C)CCCC(C)C)O2	F
CCCCN1C(=O)[C@@H]([C@H](O)C2CCCCC2)NC(=O)C12CCN(Cc1ccc(Oc3ccc(C(=O)O)cc3)cc1)CC2	T
O=C1CCCCCN1SSN1CCCCCC1=O	F
CCCCCCCC[P+](CCCCCCCC)(CCCCCCCC)CCCCCCCC	T
CO[Si](CCCNc1ccccc1)(OC)OC	F
Clc1ccc2cc3ccccc3cc2c1	F
Fc1ccc(C(c2ccc(F)cc2)N2CCN(C/C=C/c3ccccc3)CC2)cc1	T
O=C1C=CC(=O)N1c1ccc(Cc2ccc(N3C(=O)C=CC3=O)cc2)cc1	T
C[C@H](CCC(=O)O)[C@H]1CC[C@H]2[C@@H]3CC[C@@H]4C[C@H](O)CC[C@]4(C)[C@H]3CC[C@]12C	F
Oc1cccc(-c2c3nc(c(-c4cccc(O)c4)c4ccc([nH]4)c(-c4cccc(O)c4)c4nc(c(-c5cccc(O)c5)c5ccc2[nH]5)CC4)C=C3)c1	F
CC(C)n1nc(-c2cc3cc(O)ccc3[nH]2)c2c(N)ncnc21	F
CCCCc1oc2ccc(NS(C)(=O)=O)cc2c1C(=O)c1ccc(OCCCN(CCCC)CCCC)cc1	T
COC(=O)C1=C(C)NC(C)=C(C(=O)OCCc2ccc(N3CCN(C(c4ccccc4)c4ccccc4)CC3)cc2)C1c1cccc([N+](=O)[O-])c1 (centres undefined)	F
COc1cccc2c1C(=O)c1c(O)c3c(c(O)c1C2=O)C[C@@](O)(C(=O)CO)C[C@@H]3O[C@H]1C[C@H](N)[C@H](O[C@@H]2CCCCO2)[C@H](C)O1	F
CC(C)CCCCCCCCCCCCCCC(=O)O	F
CCC(N)(CO)CO	F
O=c1[nH]sc2cc(Cl)ccc12	F

====

Assay Procedure: qHTS assay to identify small molecule antagonists of the TGF-beta/Smad signaling pathway - cell viability counter screen (AID 1346824); also: nearly all actives have a fitted effect of over 50% in size
Experimental Context: SBE-bla HEK293T viability, CellTiter-Glo luminescence; series mostly up to 76.8 µM
Inconclusive results are not listed. Activity calls are given as the source filed them. Calls follow the shape of the dose curve; as a rule, active = well fitted cell-killing curve with a large enough effect in the repeat runs; inconclusive = weak or mixed curves; inactive = flat fitted curve, though single readings scatter.
Outcome codes: 1 for active, 0 for inactive

Compound	Assigned Class
Cc1cccc(S(=O)(=O)O)c1C	0
NNc1nc(-c2ccccc2)cs1	0
CCCN(CCC)C(=O)C(CCC(=O)OCCCN1CCN(CCOC(=O)Cc2c(C)n(C(=O)c3ccc(Cl)cc3)c3ccc(OC)cc23)CC1)NC(=O)c1ccccc1 (stereo not given)	0
C=CC(=O)OCC(CO)(COCC(COC(=O)C=C)(COC(=O)C=C)COC(=O)C=C)COC(=O)C=C	1
COc1ccc(-c2ccc3cc(C(=O)O)ccc3c2)cc1C12CC3CC(CC(C3)C1)C2	0

====

Assay Procedure: qHTS assay for small molecule agonists of the p53 signaling pathway - cell viability (AID 651633); also: nearly all actives have a fitted effect of over 30% in size
Experimental Context: p53RE-bla HCT-116 viability, ATP luminescence, 16 h; series mostly up to 83.3 µM
Inconclusive results are not listed. The source made the active and inactive calls. The call rests on the fitted dose curve.
Classes used: TRUE = active, FALSE = inactive

Compound	Assigned Class
CC1(C)CCC(C)(C)c2cc(C(=O)Nc3ccc(C(=O)O)cc3)ccc21	TRUE
O=[N+]([O-])c1cc([N+](=O)[O-])c2ccc(S(=O)(=O)O)cc2c1O	FALSE
CSc1ccc(/C=C2/C(C)=C(CC(=O)O)c3cc(F)ccc32)cc1	TRUE
CC(C)c1ccc2c(c1)CC[C@H]1[C@](C)(CN)CCC[C@]21C	TRUE
O=S1(=O)CC(Cl)(Cl)C(Cl)(Cl)C1	TRUE
Oc1ccc(C2(c3ccc(O)cc3)CC3CC2C2CCCC32)cc1 (stereo unspecified)	TRUE
